From: ChEMBL document CHEMBL1128674

# logP annotations
Assay: Partition coefficient (logP)
Assay type: physicochemical
Settings: octanol/water
Answer as a number with no unit attached.

>  <structureString>
CC(C)C[C@H](O)[C@H](O)[C@@H](N)CC1CCCCC1

>  <quantitativeReadout>
1.86

$$$$
>  <structureString>
CCCC[C@H](NC(=O)[C@H](Cc1ccccc1)n1cccc1)C(=O)N[C@@H](CC1CCCCC1)[C@@H](O)[C@@H](O)CC(C)C

>  <quantitativeReadout>
4.9

$$$$
>  <structureString>
CC(C)C[C@H](O)[C@H](O)[C@H](CC1CCCCC1)NC(=O)C[C@@H](NC(=O)OC(C)(C)C)C(=O)O

>  <quantitativeReadout>
2.06

$$$$

Next compound, please.
Input CC(C)C[C@H](O)[C@H](O)[C@H](CC1CCCCC1)NC(=O)[C@H](Cc1csc(N)n1)NC(=O)[C@H](Cc1ccccc1)NS(=O)(=O)N1CCOCC1 . Output logP: 3.01
